Each record here notes measured EC50.
target: NLRP3 (Homo sapiens); test: Measurement of IL-1β production (NLRP3 hIL1β EC50), PMA-differentiated THP-1 cells; settings: human IL-1β production; assayed using one or more of the described procedures
Reply numerically in nM, unit not repeated.

Sample answers from the record:
> print(dat)
                                   molecule  recorded.measurement
1  CC(C)(C)OC(=O)N1CCC[C@@H](c2nc3c(N)nc4cc(-c5cc[nH]n5)ccc4c3[nH]2)C1 [Example 6]                   360
2  CCN1CCC(Cc2nc3c(N)nc4cc(-n5cccn5)ccc4c3[nH]2)C1 (stereo not drawn) [Example 22]                  1400

Field: next molecule
Report EC50 for Nc1nc2cc(-c3cc[nH]n3)ccc2c2[nH]c([C@@H]3CCN(C(=O)c4ccccc4)C3)nc12 [Example 77] tested on NLRP3 (Homo sapiens).
4100

* * *

target: NLRP3 (Homo sapiens, UniProt Q96P20); test: Measurement of IL-1β production (NLRP3 hIL1β EC50), PMA-differentiated THP-1 cells; details: human IL-1β production; assayed using one or more of the described procedures
Sequence (Q96P20 whole entry): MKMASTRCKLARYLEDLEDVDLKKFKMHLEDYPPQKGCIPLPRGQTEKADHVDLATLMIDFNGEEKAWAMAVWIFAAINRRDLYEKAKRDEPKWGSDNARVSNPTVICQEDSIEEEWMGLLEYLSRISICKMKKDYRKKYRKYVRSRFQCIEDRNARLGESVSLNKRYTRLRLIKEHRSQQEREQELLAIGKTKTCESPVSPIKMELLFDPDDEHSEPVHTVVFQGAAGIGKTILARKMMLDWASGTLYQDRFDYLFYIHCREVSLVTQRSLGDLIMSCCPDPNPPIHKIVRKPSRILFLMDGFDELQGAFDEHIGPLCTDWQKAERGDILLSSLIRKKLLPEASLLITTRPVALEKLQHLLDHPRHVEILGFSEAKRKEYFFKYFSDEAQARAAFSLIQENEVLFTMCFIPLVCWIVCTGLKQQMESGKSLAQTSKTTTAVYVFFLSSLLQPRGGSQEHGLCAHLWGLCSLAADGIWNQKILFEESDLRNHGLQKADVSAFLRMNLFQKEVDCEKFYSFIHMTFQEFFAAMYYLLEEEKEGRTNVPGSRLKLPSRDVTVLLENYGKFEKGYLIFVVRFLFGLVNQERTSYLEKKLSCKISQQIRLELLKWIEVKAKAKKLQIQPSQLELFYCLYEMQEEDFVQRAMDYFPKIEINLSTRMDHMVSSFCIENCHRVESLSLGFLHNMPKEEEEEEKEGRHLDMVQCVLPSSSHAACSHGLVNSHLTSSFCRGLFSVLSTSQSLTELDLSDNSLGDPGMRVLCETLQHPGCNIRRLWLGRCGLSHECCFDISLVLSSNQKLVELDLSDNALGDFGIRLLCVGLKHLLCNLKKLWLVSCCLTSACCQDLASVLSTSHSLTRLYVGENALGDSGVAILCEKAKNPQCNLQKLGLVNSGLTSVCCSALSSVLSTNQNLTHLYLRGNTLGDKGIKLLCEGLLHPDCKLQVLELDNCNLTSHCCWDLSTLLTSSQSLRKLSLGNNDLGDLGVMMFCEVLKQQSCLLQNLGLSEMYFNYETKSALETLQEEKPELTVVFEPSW
Each record here notes measured pEC50.
Please treat pEC50 as minus the base-10 logarithm of the molar concentration.

Sample answers from the record:
> print(dat)
                                   compound  recorded.measurement
1  Nc1nc2cc(-c3cc[nH]n3)ccc2c2[nH]c([C@H]3CCCN(C(=O)C4(C(F)(F)F)CC4)C3)nc12                  5.55
2  CC(C)n1c([C@H]2CCCN(C(=O)c3ccccc3)C2)nc2c(N)nc3cc(-c4cc[nH]n4)ccc3c21                  6.52
3  Nc1nc2cc(-c3cc[nH]n3)ccc2c2[nH]c(C[C@@H]3CCCN3C(=O)c3ccccc3)nc12                  4.96
4  N#CC1(C(=O)N2CCC[C@H](c3nc4c(N)nc5cc(-c6cc[nH]n6)ccc5c4[nH]3)C2)CCC1                  5.33
5  CC(C)(C)OC(=O)N1CCC[C@H](c2nc3c(N)nc4cc(-c5cc[nH]n5)ccc4c3[nH]2)C1                  6.48
6  CCN1CCC(Cc2nc3c(N)nc4cc(-c5cc[nH]n5)ccc4c3[nH]2)C1 (stereo not drawn)                  6.06

Field: next compound
Report pEC50 for "N#CC1(C(=O)N2CCC[C@H](c3nc4c(N)nc5cc(-c6cc[nH]n6)ccc5c4[nH]3)C2)CCCC1" tested on NLRP3 (Homo sapiens, UniProt Q96P20).
5.60

* * *

Target: human TLR7 (Homo sapiens)
Sequence (Q9NYK1 27-1049): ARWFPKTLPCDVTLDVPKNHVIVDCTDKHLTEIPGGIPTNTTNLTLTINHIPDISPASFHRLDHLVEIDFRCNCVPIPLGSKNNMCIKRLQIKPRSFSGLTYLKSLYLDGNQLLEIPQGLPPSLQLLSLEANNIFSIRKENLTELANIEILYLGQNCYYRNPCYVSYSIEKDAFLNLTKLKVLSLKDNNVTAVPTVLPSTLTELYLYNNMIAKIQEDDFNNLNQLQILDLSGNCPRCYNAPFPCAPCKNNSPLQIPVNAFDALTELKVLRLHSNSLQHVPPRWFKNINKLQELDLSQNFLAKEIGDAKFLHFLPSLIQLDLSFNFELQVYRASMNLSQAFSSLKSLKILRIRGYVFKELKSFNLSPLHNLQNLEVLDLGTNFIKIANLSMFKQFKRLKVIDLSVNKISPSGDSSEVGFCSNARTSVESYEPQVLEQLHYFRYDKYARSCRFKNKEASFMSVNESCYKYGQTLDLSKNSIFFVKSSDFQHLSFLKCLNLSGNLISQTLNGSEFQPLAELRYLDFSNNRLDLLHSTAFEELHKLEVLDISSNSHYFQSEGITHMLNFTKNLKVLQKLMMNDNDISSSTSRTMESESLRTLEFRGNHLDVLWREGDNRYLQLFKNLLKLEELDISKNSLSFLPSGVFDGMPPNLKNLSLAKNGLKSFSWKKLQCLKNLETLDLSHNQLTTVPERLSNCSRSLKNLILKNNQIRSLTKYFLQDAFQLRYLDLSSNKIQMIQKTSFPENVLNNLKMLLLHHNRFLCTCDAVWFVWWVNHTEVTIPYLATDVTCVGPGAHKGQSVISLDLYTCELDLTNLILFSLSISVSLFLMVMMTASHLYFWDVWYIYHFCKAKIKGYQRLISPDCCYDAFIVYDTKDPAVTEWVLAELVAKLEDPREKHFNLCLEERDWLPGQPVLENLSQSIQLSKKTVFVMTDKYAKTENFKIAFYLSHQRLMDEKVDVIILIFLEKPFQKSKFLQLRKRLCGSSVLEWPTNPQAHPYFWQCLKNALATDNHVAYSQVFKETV
Assay: In vitro human TLR7 reporter assay (HEK-Blue cells, NF-kB/AP1-inducible SEAP)
Conditions: TLR7 agonist EC50, HEK-Blue TLR7 NF-kB-SEAP reporter cells
Method: Logarithmically-growing human HEK-Blue cells co-expressing a TLR7 or TLR8 gene and a NF-kB/AP1-inducible SEAP (secreted embryonic alkaline phosphatase; Invivogen, San Diego, CA) reporter gene are added to individual wells of a 384-well plate (15,000 cells per 20 μL per well) and maintained for 24 h at 37° C., 5% CO2. […] All EC50 values (half-maximal effective concentration) are determined using proprietary data analysis software. […]
Measured endpoint: EC50 (µM)
Reply numerically in µM, unit not repeated.

> print(dat)
                            compound.string  recorded.measurement
1  Nc1nc2cc(-c3cc[nH]n3)ccc2c2[nH]c([C@H]3CCCN(C(=O)Cc4ccccc4)C3)nc12                    58
2  N#CC1(C(=O)N2CCC[C@@H](c3nc4c(N)nc5cc(-c6cc[nH]n6)ccc5c4[nH]3)C2)CCCC1                    57
3  N#CC1(C(=O)N2CCC[C@H](c3nc4c(N)nc5cc(-c6cc[nH]n6)ccc5c4[nH]3)C2)CC1                  0.62

Param item = "N#CC1(C(=O)N2CCC[C@H](c3nc4c(N)nc5cc(-c6cc[nH]n6)ccc5c4[nH]3)C2)CCCC1" ; retrieve measured EC50.
35

* * *

biological target: NLRP3 (Homo sapiens); assay: Measurement of IL-1β production (NLRP3 hIL1β EC50), PMA-differentiated THP-1 cells; details: human IL-1β production; assayed using one or more of the described procedures
Each record here notes measured EC50.
Reply numerically in nM, unit not repeated.

Sample answers from the record:
> print(dat)
                                   compound  unit.abbreviation  recorded.measurement
1  CCC(=O)N1CCC[C@@H]1Cc1nc2c(N)nc3cc(-c4cc[nH]n4)ccc3c2[nH]1                 nM                  1800
2  CC(C)CC(=O)N1CCC[C@@H](c2nc3c(N)nc4cc(-c5cc[nH]n5)ccc4c3[nH]2)C1                 nM                  3500
3  CCn1c([C@H]2CCCN(C(=O)C3(C#N)CC3)C2)nc2c(N)nc3cc(-c4cc[nH]n4)ccc3c21                 nM                   110
4  CC(C)CC(=O)N1CCC[C@H](c2nc3c(N)nc4cc(-c5cc[nH]n5)ccc4c3n2C(C)C)C1                 nM                   230
5  COC(=O)N1CCC(Cc2nc3c(N)nc4cc(-c5cc[nH]n5)ccc4c3[nH]2)C1 (stereo not drawn)                 nM                  1600

Report EC50 for "CCC(=O)N1CCC[C@H](c2nc3c(N)nc4cc(-c5cc[nH]n5)ccc4c3n2CC)C1" tested on NLRP3 (Homo sapiens).
260

Now try "CC(C)(C)OC(=O)N1CC[C@@H](c2nc3c(N)nc4cc(-c5cc[nH]n5)ccc4c3[nH]2)C1" .
750

Now try "CC(=O)N1CCC[C@H](c2nc3c(N)nc4cc(-c5cc[nH]n5)ccc4c3[nH]2)C1" .
770

Now try "N#CC1(C(=O)N2CCC[C@H]2Cc2nc3c(N)nc4cc(-c5cc[nH]n5)ccc4c3[nH]2)CC1" .
9400

* * *

Each record here notes measured pEC50.
molecular target: human TLR8 (Homo sapiens, UniProt Q9NR97); test: In vitro human TLR8 reporter assay (HEK-Blue cells, NF-kB/AP1-inducible SEAP); conditions: TLR8 agonist EC50, HEK-Blue TLR8 NF-kB-SEAP reporter cells
Sequence (Q9NR97 27-1041): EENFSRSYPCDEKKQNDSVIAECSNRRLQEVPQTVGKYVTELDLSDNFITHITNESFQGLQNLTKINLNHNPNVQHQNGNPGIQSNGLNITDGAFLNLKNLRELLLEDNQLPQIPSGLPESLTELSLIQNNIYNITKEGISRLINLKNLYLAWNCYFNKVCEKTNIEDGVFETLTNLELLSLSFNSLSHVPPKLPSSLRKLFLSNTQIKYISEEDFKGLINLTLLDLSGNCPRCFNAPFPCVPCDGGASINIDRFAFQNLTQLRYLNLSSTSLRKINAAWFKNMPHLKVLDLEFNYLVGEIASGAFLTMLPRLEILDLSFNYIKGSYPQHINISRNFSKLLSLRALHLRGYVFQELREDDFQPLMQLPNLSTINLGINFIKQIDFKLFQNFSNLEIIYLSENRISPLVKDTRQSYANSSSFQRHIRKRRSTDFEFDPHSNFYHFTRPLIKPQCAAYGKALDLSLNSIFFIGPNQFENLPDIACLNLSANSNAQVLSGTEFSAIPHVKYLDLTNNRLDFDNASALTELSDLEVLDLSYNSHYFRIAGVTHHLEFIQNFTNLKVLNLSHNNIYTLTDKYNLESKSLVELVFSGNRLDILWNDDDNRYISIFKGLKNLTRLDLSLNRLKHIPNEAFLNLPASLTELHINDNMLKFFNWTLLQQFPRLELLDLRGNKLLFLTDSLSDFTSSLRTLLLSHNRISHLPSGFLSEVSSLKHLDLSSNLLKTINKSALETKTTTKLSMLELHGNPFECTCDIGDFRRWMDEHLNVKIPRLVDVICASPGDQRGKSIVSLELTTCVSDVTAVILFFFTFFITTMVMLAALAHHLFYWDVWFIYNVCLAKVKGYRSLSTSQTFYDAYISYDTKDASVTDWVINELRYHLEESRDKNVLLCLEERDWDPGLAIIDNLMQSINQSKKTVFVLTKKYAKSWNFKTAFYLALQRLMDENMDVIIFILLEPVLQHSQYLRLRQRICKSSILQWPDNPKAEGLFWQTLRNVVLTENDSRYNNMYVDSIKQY
Please treat pEC50 as minus the base-10 logarithm of the molar concentration.

Sample answers from the record:
> print(dat)
                            compound.string  recorded.measurement
1  N#CC1(C(=O)N2CCC[C@H](c3nc4c(N)nc5cc(-c6cc[nH]n6)ccc5c4[nH]3)C2)CCCCC1                  4.77
2  CC(C)(C)OC(=O)N1CCC[C@@H](c2nc3c(N)nc4cc(-c5cc[nH]n5)ccc4c3[nH]2)C1                  5.00
3  CC(C)(C)OC(=O)N1CCC[C@H](c2nc3c(N)nc4cc(-c5cc[nH]n5)ccc4c3[nH]2)C1                  5.00
4  CC(C)CC(=O)N1CCC[C@H]1Cc1nc2c(N)nc3cc(-c4cc[nH]n4)ccc3c2[nH]1                  4.11

Field: next compound
Param item = "CC(C)(C)C(=O)N1CCC[C@H](c2nc3c(N)nc4cc(-c5cc[nH]n5)ccc4c3[nH]2)C1" ; retrieve measured pEC50.
4.33
